Sourced from the NIST ThermoML archive (doi:10.1021/je200822w)

- assayComment: activity coefficient (dimensionless); of the first substance listed, at infinite dilution; xn = mol fraction of the nth substance listed
- protocolConditions: 323.15 K; 101 kPa; Liquid; Chromatography; x1 = 0
A collection of compounds and their measured activity coefficient
assayReadout: activity coefficient

                                    compound  recordedresult
 0  CCO [ethanol] + CCCC[N+]1(C)CCCC1.N#CN=C=[N-]           0.545
 1  C1CCOC1 [tetrahydrofuran] + CCCC[N+]1(C)CCCC1.N#CN=C=[N-]            1.38
 2  CC(C)OC(C)C [diisopropyl ether] + CCCC[N+]1(C)CCCC1.N#CN=C=[N-]            17.9
 3  CO [methanol] + CCCC[N+]1(C)CCCC1.N#CN=C=[N-]           0.344
 4  C=CCCCCCC [oct-1-ene] + CCCC[N+]1(C)CCCC1.N#CN=C=[N-]            46.3
 5  FC(F)(F)C(Cl)Br (stereo unspecified) [1-bromo-1-chloro-2,2,2-trifluoroethane] + CCCC[N+]1(C)CCCC1.N#CN=C=[N-]           0.606
 6  c1ccsc1 [thiophene] + CCCC[N+]1(C)CCCC1.N#CN=C=[N-]           0.868
 7  CC(C)=O [acetone] + CCCC[N+]1(C)CCCC1.N#CN=C=[N-]           0.917
 8  CCCCCCCC [octane] + CCCC[N+]1(C)CCCC1.N#CN=C=[N-]             110
 9  CCc1ccccc1 [ethylbenzene] + CCCC[N+]1(C)CCCC1.N#CN=C=[N-]            3.55
10  ClC(Cl)(Cl)Cl [tetrachloromethane] + CCCC[N+]1(C)CCCC1.N#CN=C=[N-]            2.11
